Listing of recorded IC50 by entry.
tested system: Mitogen-activated protein kinase 14 (Homo sapiens, UniProt Q16539)
Sequence (Q16539 whole entry): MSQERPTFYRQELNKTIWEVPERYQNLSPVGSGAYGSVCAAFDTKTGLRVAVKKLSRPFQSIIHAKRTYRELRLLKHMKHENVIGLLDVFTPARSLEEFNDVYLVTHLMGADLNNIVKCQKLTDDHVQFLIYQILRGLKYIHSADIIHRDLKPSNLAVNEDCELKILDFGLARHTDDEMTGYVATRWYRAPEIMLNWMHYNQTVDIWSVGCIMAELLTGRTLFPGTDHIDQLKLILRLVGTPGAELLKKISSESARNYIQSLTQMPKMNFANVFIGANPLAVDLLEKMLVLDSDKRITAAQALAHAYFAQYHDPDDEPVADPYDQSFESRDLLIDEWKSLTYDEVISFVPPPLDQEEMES
test name: Inhibition of p38alpha assessed as phosphorylation of […] after 60 mins by fluorescence assay
Reply numerically in nM, unit not repeated.

Use the examples below as a reference point.
1. Cc1cc(OCc2ccc(F)cc2F)c(Br)c(=O)n1-c1ccc(C(N)=O)cc1 ... 122
2. Cc1cc(OCc2ccc(F)cc2F)c(Br)c(=O)n1-c1cccc(C(=O)N(C)C)c1 ... 102
3. CN(C)Cc1cc(OCc2ccc(F)cc2F)c(Br)c(=O)n1-c1c(F)cccc1F ... 6
4. CN(C)Cc1cc(OCc2ccc(F)cc2F)c(Cl)c(=O)n1-c1c(F)cccc1F ... 8
5. Cc1cc(OCc2ccc(F)cc2F)c(Br)c(=O)n1-c1ccc(CNC(=O)CN)cc1 ... 15
6. Cc1cc(OCc2ccc(F)cc2F)c(Br)c(=O)n1-c1ccc(C(=O)N(C)C)cc1 ... 746

Data request, read-out IC50, for Cc1cc(OCc2ccc(F)cc2)c(Br)c(=O)n1-c1c(Cl)cccc1Cl
6

Data request, read-out IC50, for Cc1cc(OCc2ccc(F)cc2F)c(Br)c(=O)n1-c1ccc(CN)cc1
51

Data request, read-out IC50, for Cc1cc(OCc2ccc(F)cc2F)c(Br)c(=O)n1-c1c(F)cc(OCCO)cc1F
7

Data request, read-out IC50, for Cc1cc(OCc2ccc(F)cc2F)c(Br)c(=O)n1-c1ccc(CNC(=O)CO)cc1
20

Data request, read-out IC50, for Cc1cc(OCc2ccc(F)cc2F)c(Br)c(=O)n1-c1c(F)cccc1F
3

----------
test name: Bioavailability in iv and po dosed Sprague-Dawley rat
Assay type: ADME, organism-based
condition info: in vivo
Listing of recorded bioavailability by entry.
Reply numerically in %, unit not repeated.

Use the examples below as a reference point.
1) CNC(=O)c1cccc(-n2c(C)cc(OCc3ccc(F)cc3F)c(Br)c2=O)c1 ... 3
2) O=c1c(Br)c(OCc2ccc(F)cc2F)cc(CO)n1-c1c(F)cccc1F ... 19

Data request, read-out bioavailability, for Cc1cc(OCc2ccc(F)cc2F)c(Br)c(=O)n1-c1c(F)cccc1F
19

Data request, read-out bioavailability, for Cc1cc(OCc2ccc(F)cc2F)c(Cl)c(=O)n1-c1c(F)cccc1F
21

Data request, read-out bioavailability, for O=c1c(Cl)c(OCc2ccc(F)cc2F)cc(CO)n1-c1c(F)cccc1F
32

----------
Listing of recorded IC50 by entry.
tested system: Mitogen-activated protein kinase 14 (Homo sapiens, UniProt Q16539)
test name: Inhibition of p38alpha assessed as phosphorylation of […] after 60 mins by fluorescence assay
Reply numerically in µM, unit not repeated.

Use the examples below as a reference point.
1) Cc1cc(OCc2ccc(F)cc2F)c(Br)c(=O)n1-c1cccc(CNC(N)=O)c1 ... 0.251
2) CNC(=O)c1cccc(-n2c(C)cc(OCc3ccc(F)cc3F)c(Br)c2=O)c1 ... 0.017
3) CNC(=O)c1ccc(-n2c(C)cc(OCc3ccc(F)cc3F)c(Br)c2=O)cc1 ... 0.126
4) Cc1cc(OCc2ccc(F)cc2F)c(Br)c(=O)n1-c1ccc(CNC(N)=O)cc1 ... 0.142
5) Cc1cc(OCc2ccc(F)cc2F)c(Br)c(=O)n1-c1c(F)cc(O)cc1F ... 0.015

Data request, read-out IC50, for Cc1cc(OCc2ccccc2)c(Br)c(=O)n1-c1c(Cl)cccc1Cl
0.03

Data request, read-out IC50, for Cc1cc(OCc2ccc(F)cc2F)c(Br)c(=O)n1-c1cccc(CNC(=O)CN)c1
0.261

Data request, read-out IC50, for Cc1cc(OCc2ccc(F)cc2F)c(Br)c(=O)n1-c1c(F)cc(N2CCN(C)CC2)cc1F
0.014

Data request, read-out IC50, for Cc1cc(OCc2ccc(F)cc2F)c(Br)c(=O)n1-c1c(F)cc(N(C)C)cc1F
0.008

Data request, read-out IC50, for Cc1cc(OCc2ccc(F)cc2F)c(Br)c(=O)n1-c1c(F)cc(OCC(N)=O)cc1F
0.003

Data request, read-out IC50, for Cc1cc(OCc2ccc(F)cc2F)c(Br)c(=O)n1-c1cccc(CNC(=O)CO)c1
0.175

Data request, read-out IC50, for Cc1cc(OCc2ccc(F)cc2F)c(Br)c(=O)n1-c1cccc(C(N)=O)c1
0.012

Data request, read-out IC50, for Cc1cc(OCc2ccc(F)cc2F)c(Br)c(=O)n1-c1c(Cl)cccc1Cl
0.001

Data request, read-out IC50, for O=c1c(Br)c(OCc2ccc(F)cc2F)cc(CO)n1-c1c(F)cccc1F
0.005

Data request, read-out IC50, for Cc1cc(OCc2ccc(F)cc2F)c(Br)c(=O)n1-c1cccc(CN)c1
0.681

Data request, read-out IC50, for Cc1cc(OCc2ccc(F)cc2F)c(Cl)c(=O)n1-c1c(F)cccc1F
0.004

Data request, read-out IC50, for Cc1cc(OCc2ccc(F)cc2F)c(Cl)c(=O)n1-c1c(F)cc(N2CCN(C)CC2)cc1F
0.023

Data request, read-out IC50, for O=c1c(Br)c(OCc2ccc(F)cc2F)cc(CN2CCOCC2)n1-c1c(F)cccc1F
0.009

Data request, read-out IC50, for Cc1cccc(C)c1-n1c(C)cc(OCc2ccc(F)cc2F)c(Br)c1=O
0.002

Data request, read-out IC50, for O=c1c(Cl)c(OCc2ccc(F)cc2F)cc(CO)n1-c1c(F)cccc1F
0.008

----------
test name: Metabolic stability in human liver microsomes assessed as compound remaining at 2 uM after 45 mins by LC/MS analysis
Type: ADME, Microsome
condition info: read-out: Stability
# if measured remaining at 0.75 h, 2 µM < 70%: satisfied  # else: not satisfied

1) O=c1c(Br)c(OCc2ccc(F)cc2F)cc(CO)n1-c1c(F)cccc1F ... satisfied

Could you now consider this next compound?
For Cc1cccc(C)c1-n1c(C)cc(OCc2ccc(F)cc2F)c(Br)c1=O , is the recorded remaining at 0.75 h, 2 µM below the cut-off of 70%?
satisfied

----------
test name: Half life in iv and po dosed Sprague-Dawley rat
Format: ADME, organism-based
condition info: in vivo
reported metric: half-life (h)
Reply numerically in h, unit not repeated.

Use the examples below as a reference point.
1) CNC(=O)c1cccc(-n2c(C)cc(OCc3ccc(F)cc3F)c(Br)c2=O)c1 ... 3.1
2) O=c1c(Cl)c(OCc2ccc(F)cc2F)cc(CO)n1-c1c(F)cccc1F ... 1.5
3) Cc1cc(OCc2ccc(F)cc2F)c(Br)c(=O)n1-c1cccc(C(N)=O)c1 ... 3.4

Data request, read-out half-life, for O=c1c(Br)c(OCc2ccc(F)cc2F)cc(CO)n1-c1c(F)cccc1F
8.9

Data request, read-out half-life, for Cc1cc(OCc2ccc(F)cc2F)c(Br)c(=O)n1-c1c(F)cccc1F
1.9

Data request, read-out half-life, for Cc1cc(OCc2ccc(F)cc2F)c(Cl)c(=O)n1-c1c(F)cccc1F
1.8

----------
test name: Metabolic stability in rat liver microsomes assessed as compound remaining at 2 uM after 45 mins by LC/MS analysis
Assay type: ADME, Microsome
condition info: read-out: Stability
reported metric: remaining at 0.75 h, 2 µM (%)
Reply numerically in %, unit not repeated.

Use the examples below as a reference point.
1. CN(C)Cc1cc(OCc2ccc(F)cc2F)c(Br)c(=O)n1-c1c(F)cccc1F ... 0
2. Cc1cc(OCc2ccc(F)cc2F)c(Br)c(=O)n1-c1c(F)cccc1F ... 80
3. Cc1cccc(C)c1-n1c(C)cc(OCc2ccc(F)cc2F)c(Br)c1=O ... 1
4. Cc1cc(OCc2ccc(F)cc2F)c(Br)c(=O)n1-c1c(F)cc(OCCO)cc1F ... 96

Note: attention shifts to another entry.
Data request, read-out remaining at 0.75 h, 2 µM, for Cc1cc(OCc2ccc(F)cc2F)c(Br)c(=O)n1-c1ccc(CNC(=O)CO)cc1
83

----------
test name: Metabolic stability in rat liver microsomes assessed as compound remaining at 2 uM after 45 mins by LC/MS analysis
Assay type: ADME, Microsome
condition info: read-out: Stability
reported metric: remaining at 0.75 h, 2 µM (%)
Reply numerically in %, unit not repeated.

Use the examples below as a reference point.
1. Cc1cc(OCc2ccc(F)cc2F)c(Br)c(=O)n1-c1cccc(C(N)=O)c1 ... 97
2. Cc1cc(OCc2ccc(F)cc2F)c(Br)c(=O)n1-c1ccc(CNC(=O)CN)cc1 ... 91
3. CNC(=O)c1cccc(-n2c(C)cc(OCc3ccc(F)cc3F)c(Br)c2=O)c1 ... 92
4. O=c1c(Cl)c(OCc2ccc(F)cc2F)cc(CO)n1-c1c(F)cccc1F ... 69
5. O=c1c(Br)c(OCc2ccc(F)cc2F)cc(CO)n1-c1c(F)cccc1F ... 65

Data request, read-out remaining at 0.75 h, 2 µM, for Cc1cc(OCc2ccc(F)cc2F)c(Cl)c(=O)n1-c1c(F)cccc1F
87
